- System: SF-539 CNS
- testName: NCI tumour cell line growth inhibition, 48 h
Mark criterion not met for TGI values under 30 µM, and criterion met for everything at or above.

O=S1(=O)OCCOS(=O)(=O)C1I    criterion met
CC(=O)c1cccc(NC(=O)/C(=N\NC(C)(C)C)c2c(O)c3ccccc3oc2=O)c1    criterion met
CCN(CC)CC(=O)Nc1c(C(N)=O)nnn1Cc1cc(Cl)c(C(=O)c2ccc(Cl)cc2)c(Cl)c1    criterion met

Lookup: Please check the record CCC(=O)Nc1ccc(N=Cc2cccc(Oc3ccccc3)c2)cc1 and state if its TGI is at or above 30 µM.
Found: criterion met

Lookup: Please check the record CC(C)(C)NC(C1=CC(C)(C)c2ccccc2C1=O)c1ccccc1 (stereo unspecified) and state if its TGI is at or above 30 µM.
Found: criterion not met

Lookup: Please check the record CC1=NN(c2cccc(Cl)c2)C2(SCC(=O)N2c2nc3ccccc3s2)/C1=C\c1ccc(Cl)cc1 (stereo unspecified) and state if its TGI is at or above 30 µM.
Found: criterion met

====

- System: NCI/ADR-RES ovarian
- testName: NCI tumour cell line growth inhibition, 48 h
Below is a list of entries, each paired with its recorded TGI value.
Just the number in µM, nothing appended.

CCCN(CCC)C(=O)C1=Cc2ccc(-c3ccc(C(=O)N4CCCC4)cc3)cc2N=C(N)C1    62.2
COc1ccc2c(c1)C(=O)/C(=C/c1cccc(OCC(=O)Nc3nc4c(s3)CCCC4)c1)O2    6.37
COc1ccc(N(CC(=O)NCCC[Te]c2ccccc2)C(=O)c2ccccc2)cc1    10.8

// moving on: another record for TGI
TGI measured on CC1=C[C@H]2c3c(c(O)c(O)c4oc5c(C)cccc5c(=O)c34)[C@H](c3cc(O)c(O)c4oc5c(C)cccc5c(=O)c34)[C@H]2C(C)(C)C1 = 7.15

====

Below is a list of entries, each paired with its recorded TGI value.
- Test system: NCI-H522 lung
- testName: NCI tumour cell line growth inhibition, 48 h

Below, each entry is followed by its recorded TGI result.
C[C@H]1O[C@@H](c2c(O)ccc3ccccc23)C[C@@H](N(C)C)C1O (stereo partly drawn)    > 100 µM
COc1cc2cc(C(=O)N3CC(CCl)c4c3cc([N+](=O)[O-])c3ccccc43)[nH]c2c(OC)c1OC (stereo not drawn)    > 100 µM
CC1=NN(c2cccc(Cl)c2)C2(SCC(=O)N2c2nc3ccccc3s2)/C1=C\c1ccc(Cl)cc1 (stereo not drawn)    39.2 µM
O=C(CN1CCN(c2ncnc3ccccc23)CC1)Nc1ccc(Cl)cc1C(=O)c1ccccc1Cl    1.55 µM
O=S1(=O)OCCOS(=O)(=O)C1I    > 100 µM

TGI measured on O=c1cccccc1NCCOCCNc1cccccc1=O = > 100 µM

TGI measured on O=S(=O)(/C=C/c1ccc(Cl)cc1Cl)Cc1ccccc1CS(=O)(=O)/C=C/c1ccc(Cl)cc1Cl = > 100 µM

TGI measured on O=C(Nc1cc(C(=O)Nc2cccc(S(=O)(=O)O)c2)cc(C(=O)Nc2cccc(S(=O)(=O)O)c2)c1)c1cccc(C(=O)Nc2cc(C(=O)Nc3cccc(S(=O)(=O)O)c3)cc(C(=O)Nc3cccc(S(=O)(=O)O)c3)c2)c1 = > 100 µM

====

- System: HL-60(TB) leukemia
- testName: NCI tumour cell line growth inhibition, 48 h
propertyLabel: TGI (µM)
Just the number in µM, nothing appended.

CC(=O)OC1CCN(C(=O)c2ccccc2)CC1CC1(c2cc3ccccc3[nH]2)OCCO1 (stereo not given)    53.6

TGI measured on CCc1n[nH]c(=S)n1/N=C\c1ccc(-c2ccccc2Cl)o1 = 68

TGI measured on COc1cccc(C2c3cc4c(cc3OC(C)(O)C2C)OCO4)c1O (stereo not given) = 28

====

Below is a list of entries, each paired with its recorded TGI value.
- System: PC-3 prostate
- testName: NCI tumour cell line growth inhibition, 48 h

Below, each entry is followed by its recorded TGI result.
CCOC(=O)c1c(N)nn2c1cc1cccccc12    53.7 µM
COc1ccc(N(C)S(=O)(=O)c2ccccc2)cc1    > 100 µM
C=CC(Cl)(CBr)CCC(Br)=C(C)C (configuration not stated)    52.7 µM
COc1cc2nc3sc(C(=O)Nc4ccc(C(=O)OC(C)C)cc4)c(C(=O)Nc4ccc(Cl)cc4C)n3c(=O)c2cc1OC    > 100 µM
COC(OC)C1OC(CO)C(n2cc(C)c(=O)[nH]c2=O)C1O (configuration not stated)    > 100 µM
Cc1cc(C)nc(NS(=O)(=O)c2ccc(Nc3nncc(=O)n3N)cc2)n1    54.9 µM
CC1=CC(=NC(=O)CBr)C=C/C1=N\S(=O)(=O)c1ccccc1    13.2 µM
Nc1nc(N)c(N=O)c(Nc2ccc(O)cc2)n1    > 100 µM

# value of TGI, PC-3 prostate, item COc1cc(C2c3cc4c(cc3OC(NC3CCCCC3)C2C)OCO4)cc(OC)c1OC (configuration not stated) = > 28.8 µM

# value of TGI, PC-3 prostate, item CCc1n[nH]c(=S)n1/N=C\c1ccc(-c2ccccc2Cl)o1 = > 100 µM

# value of TGI, PC-3 prostate, item O=C1/C(=C/c2cccnc2)C(n2cccc2)c2c(Br)sc(Br)c21 (configuration not stated) = 4.86 µM

====

- Test system: SW-620 colon
- testName: NCI tumour cell line growth inhibition, 48 h
Below is a list of entries, each paired with its recorded TGI value.
Just the number in µM, nothing appended.

Below, each entry is followed by its recorded TGI result.
COc1cc2nc(-c3cnc(N(C)C)nc3)nc(NC3CCN(Cc4ccccc4)CC3)c2cc1OC    2
CC1(c2ccc(F)cc2)CC(c2ccc(F)cc2)=C(C#N)C(=C(C#N)C#N)N1 (stereo not given)    62.1

// moving on: another record for TGI
TGI measured on O=C(Nc1ccccc1O)c1cccc(NC2=C(Cl)C(=O)N(Cc3ccccc3)C2=O)c1 = 5.06

====

- System: COLO 205 colon
- testName: NCI tumour cell line growth inhibition, 48 h
Where a SMILES comes first, the peptide text is derived from it. The star is where a group is joined. Boc = CC(C)(C)OC(=O)*
propertyLabel: TGI

Below, each entry is followed by its recorded TGI result.
CC(NC(=O)C(NC(=O)OC(C)(C)C)C(C)C)C(=O)N1CCCC1C(=O)NCC(=O)NC(C(=O)NCC(=O)O)C(C)C (stereo not drawn) (Boc-VAPGVG-OH; configuration not given here)    > 100 µM
CCOC(=O)Cc1nnc2c(-c3ccccc3)nc3ccccc3n12    > 100 µM
O=C(Nc1cc(C(=O)Nc2cccc(S(=O)(=O)O)c2)cc(C(=O)Nc2cccc(S(=O)(=O)O)c2)c1)c1cccc(C(=O)Nc2cc(C(=O)Nc3cccc(S(=O)(=O)O)c3)cc(C(=O)Nc3cccc(S(=O)(=O)O)c3)c2)c1    > 100 µM
COc1ccc2nc(-c3cc(-c4cc(OC)c(OC)c(OC)c4)n[nH]3)[nH]c2c1    3.24 µM
CCOc1c(Br)cc(C2C(C(=O)OC)=CN(C)C=C2C(=O)OC)cc1OC    > 100 µM

// moving on: another record for TGI
TGI measured on COc1ccc2c(=O)c(C)c(-c3ccccc3)oc2c1CN(C)C = > 100 µM

====

- Test system: 786-0 renal
- testName: NCI tumour cell line growth inhibition, 48 h
propertyLabel: TGI

CC(=O)OC(/C=C1/C=CC(=O)O1)COC(=O)c1ccccc1 (centres undefined)    > 31.2 µM

TGI measured on COc1cccc(-c2cc(=O)c3cc(OC)c(OC)cc3[nH]2)c1 = > 100 µM

TGI measured on CC1=NN(C(=O)CC(=O)Nc2ccccc2C)C(=O)C1N=Nc1ccc(C(=O)O)cc1 (centres undefined) = > 100 µM

TGI measured on N#C[S-].[Nd+3].c1cnc2c(c1)ccc1cccnc12.c1cnc2c(c1)ccc1cccnc12.c1cnc2c(c1)ccc1cccnc12 = 11.8 µM

====

GI50 tested on NCI-H460 lung: recorded values

COc1ccc2c(c1)C(=O)/C(=C/c1cccc(OCC(=O)Nc3nc4c(s3)CCCC4)c1)O2    3.48 µM
COC(=O)Nc1nc2ccc(Oc3ccc(NC(=O)Nc4cccc(C(=O)O)c4)cc3)cc2[nH]1    7.21 µM
CC(C)(C)NC(C1=CC(C)(C)c2ccccc2C1=O)c1ccccc1 (stereo not given)    1.93 µM
Oc1ccc2cc(Br)ccc2c1-c1c(O)ccc2cc(Br)ccc12    3.76 µM
Cn1nccc1Nc1nccc(-c2cc3c(s2)C(C)(C)N(CCN2CCOCC2)C3=O)n1    21.4 µM

GI50 measured on Oc1ccc(-c2nnc3sc(-c4ccc(F)c(Oc5ccccc5)c4)nn23)cc1 = 38.5 µM

GI50 measured on COc1ccccc1OCC(=O)Nc1sc2c(c1C(N)=O)CCC2 = > 100 µM

GI50 measured on CCOc1c(Br)cc(C2C(C(=O)OC)=CN(C)C=C2C(=O)OC)cc1OC = 58.1 µM
